target: SMO (Mus musculus, UniProt P56726); construct: endogenous in cells; host or cells: C3H10T1/2 (ATCC #CCL-226); assay: Smoothened (SMO)/Sonic Hedgehog (SHh) Transient Transcriptional Activation Assay (Gli-luciferase reporter in C3H10T1/2 cells); format: cell-based, murine; details: C3H 10T1/2, 2 μM test compound, SHh 250 ng/ml, 20 hrs, read-out: SMO CELL % INHIBITION @ 2 μM
Sequence (P56726 33-793): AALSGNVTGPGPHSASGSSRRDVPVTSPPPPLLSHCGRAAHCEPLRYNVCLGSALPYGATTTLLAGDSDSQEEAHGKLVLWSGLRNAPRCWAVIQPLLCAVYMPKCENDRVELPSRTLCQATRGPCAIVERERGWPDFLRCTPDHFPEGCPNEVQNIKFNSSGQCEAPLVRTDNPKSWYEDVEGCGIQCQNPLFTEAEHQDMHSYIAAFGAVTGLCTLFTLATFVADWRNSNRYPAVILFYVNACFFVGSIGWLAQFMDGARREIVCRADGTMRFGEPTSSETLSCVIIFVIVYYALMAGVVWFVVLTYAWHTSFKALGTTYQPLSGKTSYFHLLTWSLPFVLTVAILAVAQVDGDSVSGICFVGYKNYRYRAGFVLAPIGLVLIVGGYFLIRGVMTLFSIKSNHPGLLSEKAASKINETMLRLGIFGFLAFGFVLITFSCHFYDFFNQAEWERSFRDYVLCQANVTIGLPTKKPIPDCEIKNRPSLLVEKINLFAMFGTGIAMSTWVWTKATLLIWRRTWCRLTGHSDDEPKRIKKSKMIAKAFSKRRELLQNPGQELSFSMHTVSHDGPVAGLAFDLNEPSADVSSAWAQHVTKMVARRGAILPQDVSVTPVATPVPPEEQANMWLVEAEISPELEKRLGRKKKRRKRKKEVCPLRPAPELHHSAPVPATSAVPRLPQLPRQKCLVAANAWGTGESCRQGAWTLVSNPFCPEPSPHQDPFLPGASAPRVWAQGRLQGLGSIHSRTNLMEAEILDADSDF
Where a name gives a salt, the structure may show the parent alone.
measured.quantity: inhibition at 2 µM (%)

O=C(NCCCCl)N[C@@H]1CCC[C@H](c2nc3ccccc3[nH]2)C1    70
O=C(N[C@@H]1CCC[C@H](c2nc3cc(Cl)ccc3[nH]2)C1)c1ccc2c(c1)CN(CC1CC1)CC2    106
O=C1CCc2cc(C(=O)N[C@@H]3CCC[C@H](c4nc5ccccc5[nH]4)C3)ccc2N1    81
O=C(Nc1ccc(-c2ccccc2)s1)N[C@@H]1CCC[C@H](c2nc3ccccc3[nH]2)C1    108
O=C(CN1C[C@@H]2CC[C@H]1C2)NC1CCCC(c2nc3ccccc3[nH]2)C1 (some centres unmarked)    100
O=C(Nc1cc(Cl)cc(Cl)c1)N[C@@H]1CCC[C@H](c2nc3ccccc3[nH]2)C1    115
O=C(N[C@@H]1CCC[C@H](c2nc3cc(C(F)(F)F)ccc3[nH]2)C1)c1ccc2c(c1)OCCO2 [Example 151, HCl]    106
O=C(N[C@@H]1CCC[C@H](c2nc3ccccc3[nH]2)C1)C1COc2ccccc2C1 (some centres unmarked)    81
